Data origin: ChEMBL document CHEMBL5370681

# Protocol: Unbound fraction in human plasma at 5 uM measured after 24 hrs by LC-MS/MS analysis
# Assay type: ADME, cell-free
Property name: fraction unbound at 24 h, 5 µM
// return a plain number; no unit text

[in] For the compound shown here, Cc1cc(-c2ccc(C(F)(F)F)cc2)ccc1C(=O)N[C@@H](CCN)C(=O)N(C)[C@@H]1C(=O)N[C@@H](C)C(=O)N[C@H](C(=O)NCC#N)Cc2ccc(OCCN)c(c2)-c2cc1ccc2OCCN , give the reported fraction unbound at 24 h, 5 µM.
[out] 0.078

[in] Entry under review: CCCCCCCCCCCCC(=O)N[C@@H](CCN)C(=O)N(C)[C@@H]1C(=O)N[C@@H](C)C(=O)N[C@H](C(=O)NCC#N)Cc2ccc(OCCN)c(c2)-c2cc1ccc2OCCN . Reported fraction unbound at 24 h, 5 µM?
[out] 0.01

[in] For the compound Cc1cc(-c2ccc(CC(C)C)cc2)ccc1C(=O)N[C@@H](CCN)C(=O)N(C)[C@@H]1C(=O)N[C@@H](C)C(=O)N[C@H](C(=O)NCC#N)Cc2ccc(OCCN)c(c2)-c2cc1ccc2OCCN , what fraction unbound at 24 h, 5 µM is on record?
[out] 0.001

[in] // fraction unbound at 24 h, 5 µM lookup, key: Cc1cc(-c2ccc(C(C)(C)C)cc2)nc(C)c1C(=O)N[C@@H](CCN)C(=O)N(C)[C@@H]1C(=O)N[C@@H](C)C(=O)N[C@H](C(=O)NCC#N)Cc2ccc(OCCN)c(c2)-c2cc1ccc2OCCN
[out] 0.083

[in] What does the record list as fraction unbound at 24 h, 5 µM for Cc1nc(-c2ccc(C(C)(C)C)cc2)nc(C)c1C(=O)N[C@@H](CCN)C(=O)N(C)[C@@H]1C(=O)N[C@@H](C)C(=O)N[C@H](C(=O)NCC#N)Cc2ccc(OCCN)c(c2)-c2cc1ccc2OCCN ?
[out] 0.22

[in] Fill in the blank: the reported fraction unbound at 24 h, 5 µM of CCCCCCCCCCC(=O)N[C@@H](CCN)C(=O)N(C)[C@@H]1C(=O)N[C@@H](C)C(=O)N[C@H](C(=O)NCC#N)Cc2ccc(OCCN)c(c2)-c2cc1ccc2OCCN is ____.
[out] 0.09

[in] // returns reported fraction unbound at 24 h, 5 µM for input Cc1nc(-c2ccc(C(C)(C)C)cc2)ncc1C(=O)N[C@@H](CCN)C(=O)N(C)[C@@H]1C(=O)N[C@@H](C)C(=O)N[C@H](C(=O)NCC#N)Cc2ccc(OCCN)c(c2)-c2cc1ccc2OCCN
[out] 0.23

[in] Please give the measured fraction unbound at 24 h, 5 µM for this compound: Cc1cc(-c2ccccc2)ccc1C(=O)N[C@@H](CCN)C(=O)N(C)[C@@H]1C(=O)N[C@@H](C)C(=O)N[C@H](C(=O)NCC#N)Cc2ccc(OCCN)c(c2)-c2cc1ccc2OCCN
[out] 0.34

[in] Given the compound CCc1ccc(-c2ccc(C(=O)N[C@@H](CCN)C(=O)N(C)[C@@H]3C(=O)N[C@@H](C)C(=O)N[C@H](C(=O)NCC#N)Cc4ccc(OCCN)c(c4)-c4cc3ccc4OCCN)c(C)c2)cc1 , what is its reported fraction unbound at 24 h, 5 µM?
[out] 0.053

[in] Fill in the blank: the reported fraction unbound at 24 h, 5 µM of Cc1cc(-c2ccc(Cl)cc2)ccc1C(=O)N[C@@H](CCN)C(=O)N(C)[C@@H]1C(=O)N[C@@H](C)C(=O)N[C@H](C(=O)NCC#N)Cc2ccc(OCCN)c(c2)-c2cc1ccc2OCCN is ____.
[out] 0.13
